Source of measurements: ChEMBL document CHEMBL4049396

system: SH-SY5Y; test: Neuroprotective activity against oxygen glucose deprivation/re-oxygenation-induced mitochondrial oxidative stress in human SH-SY5Y cells assessed as cell survival at 0.3 uM pretreated for 24 hrs followed by 4 hrs incubation under oxygen glucose deprivation medium and subsequent exposure to normoxic condition by MTT assay relative to control; assay type: functional; details: read-out: Survival
Measurement Type: viability at 0.3 µM (%)
Give a bare numeral; the unit % is implied.

>  <Mol Smiles>
CCOC(=O)CC[C@@H](NC(=O)OCc1ccccc1)C(=O)NCCC1CCN(Cc2ccccc2)CC1

>  <Quantitative Result>
47

$$$$
>  <Mol Smiles>
CCCCCCOC(=O)[C@@H](CCC(=O)NCCC1CCN(Cc2ccccc2)CC1)NC(=O)c1ccccc1

>  <Quantitative Result>
32.2

$$$$
>  <Mol Smiles>
CCOC(=O)[C@H](CCC(=O)NCCC1CCN(Cc2ccccc2)CC1)NC(=O)c1c[nH]c2ccccc12

>  <Quantitative Result>
42.4

$$$$
>  <Mol Smiles>
O=C(CC[C@H](NC(=O)c1ccccc1)C(=O)O)NCCC1CCN(Cc2ccccc2)CC1

>  <Quantitative Result>
50.6

$$$$
>  <Mol Smiles>
CCCCCCOC(=O)[C@H](CCC(=O)NCCC1CCN(Cc2ccccc2)CC1)NC(=O)c1ccccc1

>  <Quantitative Result>
53.4

$$$$

Sample `CCOC(=O)CC[C@H](NC(=O)OCc1ccccc1)C(=O)OCC` — what was its viability at 0.3 µM?
51.6

Also `CCOC(=O)[C@H](CCC(=O)NCCC1CCN(Cc2ccccc2)CC1)NC(=O)c1ccccc1` , if possible.
50.9

Also `COc1ccc2[nH]cc(CCNC(C)=O)c2c1` , if possible.
31.4

Also `CCOC(=O)[C@H](CCC(=O)NCCC1CCN(Cc2ccccc2)CC1)NC(=O)c1ccc2cc(OC)ccc2c1` , if possible.
37.7

====

target: Acetylcholinesterase (Homo sapiens, UniProt P22303); assay: Inhibition of recombinant human AChE expressed in HEK293 cells using acetylthiocholine iodide as substrate pretreated for 5 mins followed by substrate addition measured for 5 mins by UV-Vis spectrophotometric method
Sequence (P22303 whole entry): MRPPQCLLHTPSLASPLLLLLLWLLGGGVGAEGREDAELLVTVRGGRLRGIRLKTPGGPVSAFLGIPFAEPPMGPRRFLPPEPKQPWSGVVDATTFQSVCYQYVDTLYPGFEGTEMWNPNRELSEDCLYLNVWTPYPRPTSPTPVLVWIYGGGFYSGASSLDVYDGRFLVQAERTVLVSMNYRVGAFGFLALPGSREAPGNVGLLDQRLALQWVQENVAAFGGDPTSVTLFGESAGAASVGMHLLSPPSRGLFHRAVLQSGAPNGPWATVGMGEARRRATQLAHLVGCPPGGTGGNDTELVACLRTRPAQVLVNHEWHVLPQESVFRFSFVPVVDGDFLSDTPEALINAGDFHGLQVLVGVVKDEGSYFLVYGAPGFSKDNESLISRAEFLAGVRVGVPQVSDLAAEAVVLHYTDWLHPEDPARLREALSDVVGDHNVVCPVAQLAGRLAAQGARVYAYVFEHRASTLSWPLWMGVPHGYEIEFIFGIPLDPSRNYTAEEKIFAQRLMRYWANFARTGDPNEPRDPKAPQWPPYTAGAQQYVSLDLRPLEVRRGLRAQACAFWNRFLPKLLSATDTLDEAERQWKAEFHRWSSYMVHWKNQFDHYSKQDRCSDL
Measurement Type: IC50

Some compounds with recorded IC50:
>  <Mol Smiles>
CCOC(=O)[C@H](CCC(=O)NCCC1CCN(Cc2ccccc2)CC1)NC(=O)c1c[nH]c2ccccc12

>  <Tgt>
Acetylcholinesterase (Homo sapiens, UniProt P22303)

>  <IC50>
1.9 µM

$$$$
>  <Mol Smiles>
CCOC(=O)CC[C@H](NC(=O)OCc1ccccc1)C(=O)OCC

>  <Tgt>
Acetylcholinesterase (Homo sapiens, UniProt P22303)

>  <IC50>
> 10 µM

$$$$

Sample `CCOC(=O)[C@@H](CCC(=O)NCCC1CCN(Cc2ccccc2)CC1)NC(=O)c1ccccc1` — what was its IC50?
0.5 µM

Also `CCCCCCOC(=O)[C@H](CCC(=O)NCCC1CCN(Cc2ccccc2)CC1)NC(=O)c1c[nH]c2ccccc12` , if possible.
3.04 µM

Also `O=C(CC[C@H](NC(=O)c1c[nH]c2ccccc12)C(=O)O)NCCC1CCN(Cc2ccccc2)CC1` , if possible.
6.4 µM

====

test: physchem; conditions: PAMPA, pH 7.4
Description: Permeability of the compound at pH 7.4 at 1 mg/ml after 4 hrs by PAMPA-BBB assay
Reported Papp at 4 h, 1 mg/ml values for the following molecules.
Give a bare numeral; the unit ×10⁻⁶ cm/s is implied.

Sample `CCOC(=O)[C@H](CCC(=O)NCCC1CCN(Cc2ccccc2)CC1)NC(=O)c1ccccc1` — what was its Papp at 4 h, 1 mg/ml?
5.2

====

biological target: Voltage-gated L-type calcium channel (Homo sapiens, UniProt Q13936+Q13698+Q01668+O60840); assay: Inhibition of L-type voltage dependent calcium channel in human SH-SY5Y cells assessed as reduction in K+-induced cytosolic free calcium transient current preincubated for 15 mins followed by potassium challenge measured for 14 secs by Fluo-4AM dye based fluorescence assay
Reported pIC50 values for the following compounds.
A value of pIC50 is the negative decimal logarithm of a concentration given in moles per litre.

>  <Mol Smiles>
CCCCCCOC(=O)[C@H](CCC(=O)NCCC1CCN(Cc2ccccc2)CC1)NC(=O)c1ccccc1

>  <Tgt>
Voltage-gated L-type calcium channel (Homo sapiens, UniProt Q13936+Q13698+Q01668+O60840)

>  <pIC50>
4.85

$$$$

Moving on to another compound below.
Sample `CCOC(=O)CC[C@H](NC(=O)OCc1ccccc1)C(=O)NCCC1CCN(Cc2ccccc2)CC1` — what was its pIC50?
4.05

====

experiment: physchem; details: PAMPA, pH 7.4
Measurement Type: Papp at 4 h, 1 mg/ml (×10⁻⁶ cm/s)
Give a bare numeral; the unit ×10⁻⁶ cm/s is implied.

Sample `O=C(CC[C@H](NC(=O)c1c[nH]c2ccccc12)C(=O)O)NCCC1CCN(Cc2ccccc2)CC1` — what was its Papp at 4 h, 1 mg/ml?
1.8

Also `CCOC(=O)[C@H](CCC(=O)NCCC1CCN(Cc2ccccc2)CC1)NC(=O)c1c[nH]c2ccccc12` , if possible.
4.5

Also `CCCCCCOC(=O)[C@@H](CCC(=O)NCCC1CCN(Cc2ccccc2)CC1)NC(=O)c1ccccc1` , if possible.
13.9

Also `CCOC(=O)[C@H](CCC(=O)NCCC1CCN(Cc2ccccc2)CC1)NC(=O)c1ccc2cc(OC)ccc2c1` , if possible.
8.3

Also `CCCCCCOC(=O)[C@H](CCC(=O)NCCC1CCN(Cc2ccccc2)CC1)NC(=O)c1c[nH]c2ccccc12` , if possible.
9.6

Also `CCOC(=O)CC[C@@H](NC(=O)OCc1ccccc1)C(=O)NCCC1CCN(Cc2ccccc2)CC1` , if possible.
16.7

====

target: Cholinesterase (Homo sapiens); assay: Inhibition of human serum BuChE using butyrylthiocholine iodide as substrate pretreated for 5 mins followed by substrate addition measured for 5 mins by UV-Vis spectrophotometric method
Sequence (P06276 whole entry): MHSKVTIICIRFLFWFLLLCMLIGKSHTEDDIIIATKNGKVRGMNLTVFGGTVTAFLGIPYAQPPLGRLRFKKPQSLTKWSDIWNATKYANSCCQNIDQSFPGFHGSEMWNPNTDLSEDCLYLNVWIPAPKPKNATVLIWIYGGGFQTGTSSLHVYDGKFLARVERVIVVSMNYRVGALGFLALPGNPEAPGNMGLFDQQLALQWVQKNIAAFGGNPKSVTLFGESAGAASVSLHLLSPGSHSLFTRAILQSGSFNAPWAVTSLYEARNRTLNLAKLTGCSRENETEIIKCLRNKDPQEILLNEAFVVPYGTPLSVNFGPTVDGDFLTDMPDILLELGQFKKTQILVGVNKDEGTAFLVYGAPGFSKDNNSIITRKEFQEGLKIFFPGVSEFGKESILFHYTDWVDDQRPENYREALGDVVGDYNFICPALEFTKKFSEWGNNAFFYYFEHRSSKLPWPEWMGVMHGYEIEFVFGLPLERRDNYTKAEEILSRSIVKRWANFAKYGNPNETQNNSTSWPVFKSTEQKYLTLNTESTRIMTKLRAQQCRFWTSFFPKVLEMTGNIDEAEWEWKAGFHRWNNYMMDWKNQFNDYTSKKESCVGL
pIC50: −log10 of the molar value.
Record y whenever pIC50 is at 6 or higher; record n when lower.

Worked examples follow.
>  <Mol Smiles>
O=C(CC[C@H](NC(=O)c1ccccc1)C(=O)O)NCCC1CCN(Cc2ccccc2)CC1

>  <Tgt>
Cholinesterase (Homo sapiens)

>  <Class Label>
n

$$$$
>  <Mol Smiles>
CCOC(=O)CC[C@H](NC(=O)OCc1ccccc1)C(=O)NCCC1CCN(Cc2ccccc2)CC1

>  <Tgt>
Cholinesterase (Homo sapiens)

>  <Class Label>
y

$$$$
>  <Mol Smiles>
CCCCCCOC(=O)[C@@H](CCC(=O)NCCC1CCN(Cc2ccccc2)CC1)NC(=O)c1ccccc1

>  <Tgt>
Cholinesterase (Homo sapiens)

>  <Class Label>
y

$$$$
>  <Mol Smiles>
CCOC(=O)[C@H](CCC(=O)NCCC1CCN(Cc2ccccc2)CC1)NC(=O)c1c[nH]c2ccccc12

>  <Tgt>
Cholinesterase (Homo sapiens)

>  <Class Label>
y

$$$$
>  <Mol Smiles>
CCOC(=O)CC[C@@H](NC(=O)OCc1ccccc1)C(=O)NCCC1CCN(Cc2ccccc2)CC1

>  <Tgt>
Cholinesterase (Homo sapiens)

>  <Class Label>
y

$$$$
>  <Mol Smiles>
CCOC(=O)[C@H](CCC(=O)NCCC1CCN(Cc2ccccc2)CC1)NC(=O)c1ccc2cc(OC)ccc2c1

>  <Tgt>
Cholinesterase (Homo sapiens)

>  <Class Label>
n

$$$$
>  <Mol Smiles>
CCOC(=O)CC[C@@H](NC(=O)OCc1ccccc1)C(=O)OCC

>  <Tgt>
Cholinesterase (Homo sapiens)

>  <Class Label>
n

$$$$
>  <Mol Smiles>
COc1ccc2cc(C(=O)N[C@@H](CCC(=O)NCCC3CCN(Cc4ccccc4)CC3)C(=O)O)ccc2c1

>  <Tgt>
Cholinesterase (Homo sapiens)

>  <Class Label>
n

$$$$

Kindly consider the entry below.
State whether the measured pIC50 reaches 6, counting equality as reaching it, for `O=C(CC[C@H](NC(=O)c1c[nH]c2ccccc12)C(=O)O)NCCC1CCN(Cc2ccccc2)CC1`
n

====

Reported viability at 0.3 µM values for the following compounds.
system: SH-SY5Y; test: Neuroprotective activity against oxygen glucose deprivation/re-oxygenation-induced mitochondrial oxidative stress in human SH-SY5Y cells assessed as cell survival at 0.3 uM pretreated for 24 hrs followed by 4 hrs incubation under oxygen glucose deprivation medium and subsequent exposure to normoxic condition by MTT assay relative to control; assay type: functional; settings: read-out: Survival
Give a bare numeral; the unit % is implied.

Some compounds with recorded viability at 0.3 µM:
>  <Mol Smiles>
CCOC(=O)CC[C@H](NC(=O)OCc1ccccc1)C(=O)NCCC1CCN(Cc2ccccc2)CC1

>  <viability at 0.3 µM (%)>
42.7

$$$$
>  <Mol Smiles>
COc1ccc2cc(C(=O)N[C@@H](CCC(=O)NCCC3CCN(Cc4ccccc4)CC3)C(=O)O)ccc2c1

>  <viability at 0.3 µM (%)>
45

$$$$
>  <Mol Smiles>
CCCCCCOC(=O)[C@H](CCC(=O)NCCC1CCN(Cc2ccccc2)CC1)NC(=O)c1c[nH]c2ccccc12

>  <viability at 0.3 µM (%)>
31.8

$$$$
>  <Mol Smiles>
CCOC(=O)[C@@H](CCC(=O)NCCC1CCN(Cc2ccccc2)CC1)NC(=O)c1ccccc1

>  <viability at 0.3 µM (%)>
39.8

$$$$
>  <Mol Smiles>
CCOC(=O)CC[C@@H](NC(=O)OCc1ccccc1)C(=O)OCC

>  <viability at 0.3 µM (%)>
47.1

$$$$

Given the entry `O=C(CC[C@@H](NC(=O)c1ccccc1)C(=O)O)NCCC1CCN(Cc2ccccc2)CC1` , what viability at 0.3 µM was observed with SH-SY5Y?
38.5

Also `O=C(CC[C@H](NC(=O)c1c[nH]c2ccccc12)C(=O)O)NCCC1CCN(Cc2ccccc2)CC1` , if possible.
48.4
